Catalogue of activation readings, one per entry.
# MEASUREMENT_TARGET: Thyrotropin receptor (Homo sapiens) (UniProt P16473)
# Sequence (P16473 whole entry, looked up): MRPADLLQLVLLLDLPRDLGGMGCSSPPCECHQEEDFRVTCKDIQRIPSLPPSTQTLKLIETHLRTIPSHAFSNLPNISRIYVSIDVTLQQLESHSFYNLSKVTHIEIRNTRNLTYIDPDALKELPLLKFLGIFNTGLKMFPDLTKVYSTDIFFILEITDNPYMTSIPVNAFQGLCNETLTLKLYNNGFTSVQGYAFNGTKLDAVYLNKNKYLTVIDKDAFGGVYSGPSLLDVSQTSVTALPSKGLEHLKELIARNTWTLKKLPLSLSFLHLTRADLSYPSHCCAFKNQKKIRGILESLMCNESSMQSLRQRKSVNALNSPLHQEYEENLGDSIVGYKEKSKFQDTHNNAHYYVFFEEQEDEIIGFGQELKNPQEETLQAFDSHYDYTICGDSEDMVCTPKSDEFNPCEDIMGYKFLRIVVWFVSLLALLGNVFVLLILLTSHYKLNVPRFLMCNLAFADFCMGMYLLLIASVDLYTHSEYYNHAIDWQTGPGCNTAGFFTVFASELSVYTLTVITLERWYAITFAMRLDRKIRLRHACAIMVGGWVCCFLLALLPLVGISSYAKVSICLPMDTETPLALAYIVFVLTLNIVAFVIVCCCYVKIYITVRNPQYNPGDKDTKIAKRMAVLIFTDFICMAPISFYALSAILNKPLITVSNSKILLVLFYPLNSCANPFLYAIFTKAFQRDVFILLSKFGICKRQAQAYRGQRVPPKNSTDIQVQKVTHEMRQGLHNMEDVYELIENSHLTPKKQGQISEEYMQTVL
# ASSAY_NAME: qHTS assay to identify small molecule agonists of the thyroid stimulating hormone receptor (TSHR) signaling pathway (AID 1224843); further: on the % scale 0 is the no-effect control and ±100 the full control effect; nearly all actives have a fitted effect of over 45% in size
# CONDITION_LABEL: TSHR-HEK293 cells, cAMP HTRF, agonist mode, 30 min; series mostly up to 92.4 µM
Records with an inconclusive call do not appear. Activity calls are given as the source filed them. The call rests on the fitted dose curve.

Example results:
CCCCCCCCCCCCS(=O)(=O)Cl : -1.12% [at 19 µM] (inactive)
C=CC(=O)OCCOC1C2CCC1C1CC=CC12 (centres undefined) : -1.28% [at 19 µM] (inactive)
C=C[Si](C)(C)Cl : -10.3% [at 8.39 µM] (inactive)

Alright, here's another compound for you.
Retrieve activation measured for COc1cc(C(C)C)ccc1C and print it. 6.84% [at 19 µM] (inactive)
